# Tgt: BChE (Homo sapiens)
# Sequence (P06276 29-602): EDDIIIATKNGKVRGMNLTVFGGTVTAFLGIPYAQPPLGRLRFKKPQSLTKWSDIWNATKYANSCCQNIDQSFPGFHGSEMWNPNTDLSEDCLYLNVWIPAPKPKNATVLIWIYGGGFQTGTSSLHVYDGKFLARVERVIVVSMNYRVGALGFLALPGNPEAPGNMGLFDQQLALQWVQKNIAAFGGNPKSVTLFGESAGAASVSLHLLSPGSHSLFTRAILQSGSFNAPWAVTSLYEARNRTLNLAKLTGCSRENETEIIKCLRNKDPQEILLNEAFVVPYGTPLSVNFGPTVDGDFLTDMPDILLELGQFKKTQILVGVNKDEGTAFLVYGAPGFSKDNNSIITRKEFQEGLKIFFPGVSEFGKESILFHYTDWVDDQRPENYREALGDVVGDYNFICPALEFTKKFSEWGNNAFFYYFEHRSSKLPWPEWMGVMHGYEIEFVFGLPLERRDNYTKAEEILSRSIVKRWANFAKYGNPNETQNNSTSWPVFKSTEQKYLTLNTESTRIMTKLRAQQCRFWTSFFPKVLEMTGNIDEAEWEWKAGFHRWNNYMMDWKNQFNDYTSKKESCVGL
# Procedure details: biochemical
Endpoint: pIC50
pIC50 is a log-scale quantity: -log10 of the concentration expressed in molar.

// pIC50 lookup, key: COc1ccc(C=O)cc1O [Compound 1, Isovanillin] 7.27

###

# Tgt: AChE (Homo sapiens, UniProt P22303)
# Sequence (P22303 32-614): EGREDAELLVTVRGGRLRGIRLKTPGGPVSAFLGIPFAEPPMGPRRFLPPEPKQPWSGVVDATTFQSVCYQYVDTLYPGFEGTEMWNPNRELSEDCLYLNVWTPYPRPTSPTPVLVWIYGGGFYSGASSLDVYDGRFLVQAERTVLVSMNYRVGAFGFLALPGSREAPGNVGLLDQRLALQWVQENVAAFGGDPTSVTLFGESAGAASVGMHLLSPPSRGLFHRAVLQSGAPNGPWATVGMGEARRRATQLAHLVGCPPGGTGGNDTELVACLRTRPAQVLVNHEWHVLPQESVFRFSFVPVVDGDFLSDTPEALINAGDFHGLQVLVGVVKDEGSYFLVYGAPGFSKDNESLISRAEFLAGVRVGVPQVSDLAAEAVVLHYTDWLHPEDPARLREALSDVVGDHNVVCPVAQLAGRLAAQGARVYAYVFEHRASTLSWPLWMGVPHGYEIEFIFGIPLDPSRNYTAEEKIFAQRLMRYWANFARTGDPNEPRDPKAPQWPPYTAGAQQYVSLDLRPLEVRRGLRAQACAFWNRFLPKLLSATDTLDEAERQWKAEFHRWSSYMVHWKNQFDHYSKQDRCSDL
# Procedure details: biochemical
# Condition parameters: AChE/BChE
Selectivity Index (AChE/BChE) vs 0.9: less than gives yes (1); not less than gives no (0).

Example results:
>>> class("COc1ccc(/C=N/c2ccccc2O)cc1O [Compound 11]")
"yes (1)"
>>> class("COc1ccc(/C=N/c2ccc(Br)cc2)cc1O [Compound 13]")
"yes (1)"
>>> class("COc1ccc(/C=N/Nc2ccccc2)cc1O [Compound 17]")
"no (0)"
>>> class("COc1ccc(/C=N/N=C(c2ccccc2)c2ccccc2)cc1O [Compound 16]")
"yes (1)"
>>> class("COc1ccc(/C=N/c2ccc(F)cc2)cc1O [Compound 12]")
"yes (1)"

API: query returns whether the compound falls strictly under 0.9 in Selectivity Index (AChE/BChE). Query: COc1ccc(/C=N/Cc2ccccc2)cc1O [Compound 15] yes (1)

Please let me know if COc1ccc(C=O)cc1O [Compound 1, Isovanillin] shows Selectivity Index (AChE/BChE) below 0.9. no (0)

Please state whether Selectivity Index (AChE/BChE) is below 0.9 for COc1ccc(/C=N/c2ccc(N(C)C)cc2)cc1O [Compound 10] no (0)

###

# Procedure details: ABTS radical cation scavenging
Quick list: ABTS^•+ Scavenging IC50 per entry.
Provide a numeric answer, followed by its unit.

Here's what some known entries look like.
>>> result("COc1ccc(C=O)cc1O")
"12.15 µg/mL"
>>> result("COc1ccc(O)c(C(C)(C)C)c1 [BHA, butylated hydroxyanisole, reference compound]")
"4.47 µg/mL"
>>> result("Cc1cc(C(C)(C)C)c(O)c(C(C)(C)C)c1 [BHT, butylated hydroxytoluene, reference compound]")
"4.95 µg/mL"
>>> result("COc1ccc(/C=N/c2ccc(F)cc2)cc1O")
"27.72 µg/mL"
>>> result("COc1ccc(/C=N/c2ccc(N)cc2)cc1O")
"5.33 µg/mL"

Let us examine a further case.
Record request: ABTS^•+ Scavenging IC50 value, item `COc1ccc(/C=N/c2ccc(Br)cc2)cc1O` 34.65 µg/mL

###

# Procedure details: Fe3+ reducing ability (ferricyanide method, absorbance 700 nm)
# Condition parameters: 30 µg/mL; absorbance at 700 nm
Readings of Fe^3+ Reducing λ700 for the listed molecules
Value and unit, in that order.

>>> result("COc1ccc(/C=N/c2ccccc2O)cc1O")
"2.591 ± 0.010 absorbance"

Name the recorded Fe^3+ Reducing λ700 for `COc1ccc(/C=N/Cc2ccccc2)cc1O` . 0.363 ± 0.021 absorbance

Requested read-out: Fe^3+ Reducing λ700. Entry: COc1ccc(O)c(C(C)(C)C)c1 [BHA, butylated hydroxyanisole, reference compound] 2.448 ± 0.021 absorbance

What does the data say about its Fe^3+ Reducing λ700? Entry: Cc1c(C)c2c(c(C)c1O)CCC(C)(C(=O)O)O2 (stereo not shown) [Trolox, trolox, reference compound] 1.570 ± 0.016 absorbance
